Data origin: patent US20160263097A1

protocol.notes: Study 1: open-label 2-way crossover relative bioavailability, tablet vs oral liquid formulation
Assay type: in vivo, human
test.settings: human, plasma, oral, 10 mg, Study 1, Treatment B: 25 mL × 0.4 mg/mL liquid formulation; read-out: AUC(0-T) Adj.Geo.Mean
Experimental: Frel of a crushed tablet administered via NGT versus oral liquid formulation was also evaluated. […] The effect of different flush media [D5W and infant formula (Similac®)] and coadministered nutritional supplement (Boost Plus®) on the liquid formulation's bioavailability was assessed. Three open-label, randomized, crossover studies were conducted. […] Serial pharmacokinetics samples were collected. […] Frel was defined as the ratio of AUCinf. […]
measure: AUC(0-t) (ng·h/mL)

smiles_data=COc1ccc(-n2nc(C(N)=O)c3c2C(=O)N(c2ccc(N4CCCCC4=O)cc2)CC3)cc1 measure=AUC(0-t) measurement_unit=ng·h/mL assay_value=2780

---

protocol.notes: Study 3: open-label 3-way crossover, liquid formulation oral vs NGT with Boost Plus vs crushed tablet via NGT
Format: in vivo, human
test.settings: human, plasma, 5 mg, Study 3, between the 3 treatments; read-out: mean T1/2
measure: half-life

compound="COc1ccc(-n2nc(C(N)=O)c3c2C(=O)N(c2ccc(N4CCCCC4=O)cc2)CC3)cc1 [Apixaban]" measure=half-life assay_value="9.6 to 11.2 h"

---

protocol.notes: Study 3: open-label 3-way crossover, liquid formulation oral vs NGT with Boost Plus vs crushed tablet via NGT
Assay type: in vivo, human
test.settings: human, plasma, po, 5 mg, Study 3, TRT A: 5 mg oral liquid formulation (0.4 mg/mL × 12.5 mL) administered orally; read-out: Tmax Median
measure: Tmax (h)

smiles_data=COc1ccc(-n2nc(C(N)=O)c3c2C(=O)N(c2ccc(N4CCCCC4=O)cc2)CC3)cc1 assay_value=1

---

protocol.notes: Study 1: open-label 2-way crossover relative bioavailability, tablet vs oral liquid formulation
Format: in vivo, human
test.settings: human, plasma, po, 10 mg, Study 1, Treatment A: 2 × 5 mg Phase 3 tablets, oral, healthy subjects; read-out: AUC(0-T) Geo. Mean
measure: AUC(0-t) (ng·h/mL)

molecule="COc1ccc(-n2nc(C(N)=O)c3c2C(=O)N(c2ccc(N4CCCCC4=O)cc2)CC3)cc1 [Apixaban]" assay_value=2660

---

protocol.notes: Study 1: open-label 2-way crossover relative bioavailability, tablet vs oral liquid formulation
Assay type: in vivo, human
test.settings: human, plasma, po, 10 mg, Study 1, Treatment B: 25 mL × 0.4 mg/mL liquid formulation, oral, healthy subjects; read-out: T1/2 Mean (converted)
measure: half-life (h)

compound="COc1ccc(-n2nc(C(N)=O)c3c2C(=O)N(c2ccc(N4CCCCC4=O)cc2)CC3)cc1 [Apixaban]" measure=half-life assay_value=13.8

---

protocol.notes: Study 2: open-label 3-way crossover, liquid formulation oral vs NGT with D5W or infant formula flush
Format: in vivo, human
test.settings: human, plasma, po, 5 mg, Study 2, Treatment B: 5 mg (12.5 mL) liquid formulation via NGT followed by 60 mL of D5W via NGT; read-out: AUC(0-T) Geo. Mean
measure: AUC(0-t) (ng·h/mL)

smiles_data=COc1ccc(-n2nc(C(N)=O)c3c2C(=O)N(c2ccc(N4CCCCC4=O)cc2)CC3)cc1 measurement_unit=ng·h/mL assay_value=1210

---

protocol.notes: Study 2: open-label 3-way crossover, liquid formulation oral vs NGT with D5W or infant formula flush
Format: in vivo, human
test.settings: human, plasma, po, 5 mg, Study 2, Treatment C: 5 mg (12.5 mL) liquid formulation via NGT followed by 60 mL of infant formula via NGT; read-out: T1/2 Mean (converted)
measure: half-life (h)

compound="COc1ccc(-n2nc(C(N)=O)c3c2C(=O)N(c2ccc(N4CCCCC4=O)cc2)CC3)cc1 [Apixaban]" measure=half-life assay_value=10.6
